measured-target: Polyprotein P1234 (Chikungunya virus (strain S27-African prototype) (CHIKV), UniProt Q8JUX6)
Sequence (Q8JUX6 536-1333 limits assumed): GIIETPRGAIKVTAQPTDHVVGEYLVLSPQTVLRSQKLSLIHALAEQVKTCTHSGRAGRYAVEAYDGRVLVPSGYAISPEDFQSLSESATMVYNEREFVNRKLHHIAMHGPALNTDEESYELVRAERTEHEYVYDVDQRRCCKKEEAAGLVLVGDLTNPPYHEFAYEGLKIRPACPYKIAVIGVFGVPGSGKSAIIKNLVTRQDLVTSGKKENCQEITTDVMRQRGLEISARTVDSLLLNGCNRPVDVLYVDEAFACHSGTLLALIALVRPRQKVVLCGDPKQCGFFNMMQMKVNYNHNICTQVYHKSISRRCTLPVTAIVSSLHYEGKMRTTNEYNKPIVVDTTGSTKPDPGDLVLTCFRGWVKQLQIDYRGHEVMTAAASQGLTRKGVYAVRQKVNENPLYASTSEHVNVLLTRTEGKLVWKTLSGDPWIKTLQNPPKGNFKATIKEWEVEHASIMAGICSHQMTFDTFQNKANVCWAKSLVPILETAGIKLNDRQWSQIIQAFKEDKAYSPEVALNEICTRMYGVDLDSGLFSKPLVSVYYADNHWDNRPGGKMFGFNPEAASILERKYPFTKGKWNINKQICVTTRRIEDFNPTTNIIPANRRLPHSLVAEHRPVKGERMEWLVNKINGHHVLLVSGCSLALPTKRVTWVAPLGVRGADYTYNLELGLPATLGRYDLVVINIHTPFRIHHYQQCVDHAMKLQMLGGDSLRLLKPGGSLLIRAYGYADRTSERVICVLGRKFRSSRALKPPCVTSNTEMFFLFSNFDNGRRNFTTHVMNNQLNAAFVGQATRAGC
experiment-summary: Binding affinity to CHIKV nsP2 assessed as equilibrium dissociation constant by isothermal titration calorimetry
pKd: −log10 of the molar value.
property-label: pKd

1. COc1ccccc1/C=C/C(=O)Nc1ccccc1; 3.70
2. O=C(/C=C/c1ccc(Br)cc1)Nc1ccccc1; 3.66
3. O=C(/C=C/c1ccc(C(F)(F)F)cc1)Nc1ccccc1; 3.90
4. O=C(/C=C/c1ccc(Cl)cc1Cl)Nc1ccccc1; 3.80

====

measured-target: Polyprotein P1234 (Chikungunya virus (strain S27-African prototype) (CHIKV))
experiment-summary: Inhibition of CHIKV nsP2 protease activity assessed as decrease in the fluorescence signal using peptide substrate measured for 20 mins by FRET analysis
Listed here: items and their measured IC50.
property-label: IC50 (µM)

1. O=C(/C=C/c1ccc(Cl)cc1Cl)Nc1ccccc1; 20
2. COc1ccccc1/C=C/C(=O)Nc1ccccc1; 0.95
3. O=C(/C=C/c1ccc(C(F)(F)F)cc1)Nc1ccccc1; 12.5
4. O=C(/C=C/c1ccc(Br)cc1)Nc1ccccc1; 15.2

====

measured-target: Polyprotein P1234 (Chikungunya virus (strain S27-African prototype) (CHIKV))
experiment-summary: Binding affinity to CHIKV nsP2 assessed as inhibition constant by measuring fluorescence by multimode microplate reader
Measured Ki of individual entries
property-label: Ki (µM)

1) O=C(/C=C/c1ccc(C(F)(F)F)cc1)Nc1ccccc1; 48.6
2) O=C(/C=C/c1ccc(Br)cc1)Nc1ccccc1; 182
3) O=C(/C=C/c1ccc(Cl)cc1Cl)Nc1ccccc1; 92.3
4) COc1ccccc1/C=C/C(=O)Nc1ccccc1; 2.3

====

experiment-summary: Cytotoxicity against african green monkey Vero cells assessed as cell viability measured after 48 hrs by MTT assay
Type: toxicity, cell-based
test-parameters: chlorocebus sabaeus
# CC50 at 48 h per record follows
property-label: CC50 at 48 h

1) COc1ccccc1/C=C/C(=O)Nc1ccccc1; > 200 µM
2) O=C(/C=C/c1ccc(C(F)(F)F)cc1)Nc1ccccc1; 165 µM
3) O=C(/C=C/c1ccc(Cl)cc1Cl)Nc1ccccc1; > 200 µM
